test system: 786-O; experiment: Euclidean distance of Cell Painting phenotypic profile (signed KS, 77 features) to DMSO centroid (dimensionless distance); 5 or 10 uM (library dependent); higher = stronger phenotypic change vs DMSO (phenoactivity); settings: 48 h
Counter-ions that a name gives are not always drawn.
assay.readout: Euclidean distance
Format: numeric value only, no unit, no commentary.

Take a look at these entries with their results.
CC(CN1c2ccccc2Sc2ccccc21)N(C)C (configuration not stated) [Promethazine HCl]: 0.72
CCc1cccc(CC)c1NC(=O)N1Cc2[nH]nc(NC(=O)c3ccc(N4CCN(C)CC4)cc3)c2C1: 2.54
Cc1nn(-c2ccccc2)c(C)c1C=NN1CCN(Cc2ccccc2)CC1: 1.24
CC(C)(Cc1ccc2ccccc2c1)NC[C@@H](O)COc1cccc(Cl)c1C#N: 1.35

Read the next record carefully.
// query So what does the record say about Euclidean distance for `CS(=O)(=O)c1ccc(-c2cnc(N)c(C(=O)Nc3ccccc3)n2)cc1` ?
// result 0.811

* * *

test system: 786-O; assay: Euclidean distance of Cell Painting phenotypic profile (signed KS, 77 features) to DMSO centroid (dimensionless distance); 5 or 10 uM (library dependent); higher = stronger phenotypic change vs DMSO (phenoactivity); settings: 48 h
Structures can show the parent of a compound that is named as a salt.
assay.readout: Euclidean distance
Format: numeric value only, no unit, no commentary.

Take a look at these entries with their results.
O=C1c2c(O)ccc(O)c2C(=O)c2c(NCCNCCO)ccc(NCCNCCO)c21 [Mitoxantrone HCl]: 4.89
C=CC(=O)Nc1cccc(Oc2nc(Nc3ccc(N4CCN(C)CC4)cc3OC)ncc2Cl)c1: 1.32
CC(C)NCC(O)COc1ccc(CCOCC2CC2)cc1 (configuration not stated): 0.891
Clc1ccc(C(Cn2ccnc2)OCc2csc3c(Cl)cccc23)c(Cl)c1 (configuration not stated) [Sertaconazole nitrate]: 1.47
N#Cc1ccc(Oc2ccc3c(c2)COB3O)cc1: 1.25
CN1CC[C@H](c2c(O)cc(O)c3c(=O)cc(-c4ccccc4Cl)oc23)[C@H](O)C1 [Flavopiridol (Alvocidib)]: 3.09

Read the next record carefully.
// query # value lookup — system 786-O, readout Euclidean distance, item `CO[C@H]1C[C@@H]2CC[C@@H](C)[C@@](O)(O2)C(=O)C(=O)N2CCCC[C@H]2C(=O)O[C@H]([C@H](C)C[C@@H]2CC[C@H](n3cnnn3)[C@H](OC)C2)CC(=O)[C@H](C)/C=C(\C)[C@@H](O)[C@@H](OC)C(=O)[C@H](C)C[C@H](C)/C=C/C=C/C=C/1C`
// result 2.27

* * *

system: HEPG2; experiment: Euclidean distance of Cell Painting phenotypic profile (signed KS, 77 features) to DMSO centroid (dimensionless distance); 5 or 10 uM (library dependent); higher = stronger phenotypic change vs DMSO (phenoactivity); conditions: 48 h
assay.readout: Euclidean distance
Format: numeric value only, no unit, no commentary.

Take a look at these entries with their results.
CCCCC1OC(=O)c2ccccc21 (stereo not drawn) [3-n-Butylphathlide]: 0.575
O=C(Nc1cccc(Nc2ncc(Br)c(NCCc3cnc[nH]3)n2)c1)N1CCCC1: 2.43
O=C(O)C1=CO[C@@H](O[C@@H]2O[C@H](CO)[C@@H](O)[C@H](O)[C@H]2O)[C@@H]2C(CO)=CC[C@H]12: 0.985
O=C(O)c1cc(=O)c2c(OCC(O)COc3cccc4oc(C(=O)O)cc(=O)c34)cccc2o1 [Disodium Cromoglycate]: 0.769

// query So what does the record say about Euclidean distance for CCCN1CCCC[C@H]1C(=O)Nc1c(C)cccc1C [Ropivacaine Mesilate] ?
// result 0.914

* * *

test system: HEPG2; experiment: Euclidean distance of Cell Painting phenotypic profile (signed KS, 77 features) to DMSO centroid (dimensionless distance); 5 or 10 uM (library dependent); higher = stronger phenotypic change vs DMSO (phenoactivity); settings: 48 h
Where a name gives a salt, the structure may show the parent alone.
assay.readout: Euclidean distance

Take a look at these entries with their results.
CN1CCN(C(=O)c2cc3cc(Cl)ccc3[nH]2)CC1: 0.507
O=C(O[C@@H]1C[C@@H]2C[C@H]3C[C@H](C1)N2CC3=O)c1c[nH]c2ccccc12 [Dolasetron Mesylate]: 0.558
Nc1nc(=O)c2nc(CNc3ccc(C(=O)N[C@@H](CCC(=O)O)C(=O)O)cc3)cnc2[nH]1: 0.743

Read the next record carefully.
// query # value lookup — system HEPG2, readout Euclidean distance, item `CC(C)=CCC/C(C)=C/CC/C(C)=C/CC/C(C)=C/CC/C(C)=C/CC/C(C)=C/CC1=C(C)C(=O)c2ccccc2C1=O`
// result 0.747

* * *

system: FB; assay: Euclidean distance of Cell Painting phenotypic profile (signed KS, 77 features) to DMSO centroid (dimensionless distance); 5 or 10 uM (library dependent); higher = stronger phenotypic change vs DMSO (phenoactivity); settings: 48 h
Structures can show the parent of a compound that is named as a salt.
assay.readout: Euclidean distance
Format: numeric value only, no unit, no commentary.

Take a look at these entries with their results.
Cn1c(=O)c2c(ncn2CCO)n(C)c1=O: 1.08
O=C(O)c1ccc(Nc2ncc3c(n2)-c2ccc(Cl)cc2C(c2c(F)cccc2F)=NC3)cc1: 2.34
COc1cc(N)cn[n+]1-c1ccccc1 [Amezinium (methylsulfate)]: 0.801
CC(C)NCC(O)COc1ccc(COCCOC(C)C)cc1 (stereo unspecified) [Bisoprolol fumarate]: 0.91
O=C(c1cn(Cc2cncn2Cc2ccc(Br)cc2)cc1-c1cccc2ccccc12)N1CCOCC1: 2.75

// query So what does the record say about Euclidean distance for `CS(=O)(=O)c1ccc(-c2cnc(N)c(C(=O)Nc3ccccc3)n2)cc1` ?
// result 1.27

// query Consider next the compound `Cc1[nH]c(=O)c(C#N)cc1-c1ccncc1` in the same way.
// result 0.918

* * *

system: HEPG2; test: Euclidean distance of Cell Painting phenotypic profile (signed KS, 77 features) to DMSO centroid (dimensionless distance); 5 or 10 uM (library dependent); higher = stronger phenotypic change vs DMSO (phenoactivity); conditions: 48 h
assay.readout: Euclidean distance
Format: numeric value only, no unit, no commentary.

CO[C@H]1C[C@@H]2CC[C@@H](C)[C@@](O)(O2)C(=O)C(=O)N2CCCC[C@H]2C(=O)O[C@H]([C@H](C)C[C@@H]2CC[C@@H](OC(=O)C(C)(CO)CO)[C@H](OC)C2)CC(=O)[C@H](C)/C=C(\C)[C@@H](O)[C@@H](OC)C(=O)[C@H](C)C[C@H](C)/C=C/C=C/C=C/1C: 1.69
CC1(C)S[C@@H]2[C@H](NC(=O)[C@H](N)c3ccccc3)C(=O)N2[C@H]1C(=O)OCOC(=O)[C@@H]1N2C(=O)C[C@H]2S(=O)(=O)C1(C)C [Sultamicillin]: 0.611
NCC[C@H](O)C(=O)N[C@@H]1C[C@H](N)[C@@H](O[C@H]2O[C@H](CN)[C@@H](O)[C@H](O)[C@H]2O)[C@H](O)[C@H]1O[C@H]1O[C@H](CO)[C@@H](O)[C@H](N)[C@H]1O [Amikacin disulfate]: 0.695
CCC(=O)OCC(=O)[C@@]1(OC(=O)CC)[C@@H](C)C[C@H]2[C@@H]3CCC4=CC(=O)C=C[C@]4(C)[C@@]3(F)[C@@H](O)C[C@@]21C [Betamethasone Dipropionate]: 0.697
C[C@H](O)C(=O)Nc1c(I)c(C(=O)NC(CO)CO)c(I)c(C(=O)NC(CO)CO)c1I: 0.734
N[C@@H](CC(=O)N1CCn2c(nnc2C(F)(F)F)C1)Cc1cc(F)c(F)cc1F [Sitagliptin phosphate monohydrate]: 0.395
COCC1=C(C(=O)OC(C)OC(=O)OC(C)C)N2C(=O)[C@@H](NC(=O)/C(=N\OC)c3csc(N)n3)[C@H]2SC1 (stereo partly specified): 0.687
CCNC(=O)c1noc(-c2cc(C(C)C)c(O)cc2O)c1-c1ccc(CN2CCOCC2)cc1: 3.91

Read the next record carefully.
// query So what does the record say about Euclidean distance for `O=c1ccc2cc(O)c(O)cc2o1` ?
// result 1.2

* * *

test system: 786-O; test: Euclidean distance of Cell Painting phenotypic profile (signed KS, 77 features) to DMSO centroid (dimensionless distance); 5 or 10 uM (library dependent); higher = stronger phenotypic change vs DMSO (phenoactivity); details: 48 h
Examples of compounds with documented Euclidean distance follow.
Format: numeric value only, no unit, no commentary.

// query So what does the record say about Euclidean distance for COc1cc(C(=O)NC2CCCNC2)cc(OC)c1OC (stereo not drawn) [Troxipide] ?
// result 1.15

// query Consider next the compound `Cc1nc(C(=O)NCC(=O)O)c(O)c2ccc(Oc3ccccc3)cc12` in the same way.
// result 1.71

// query Consider next the compound `CCCCc1nc(-c2ccc(OCCCN(CC)CC)cc2)cn1-c1ccc(Oc2ccc(Cl)cc2)cc1` in the same way.
// result 6.58

// query Consider next the compound `Cc1ccc(-c2ccc(C)cn2)nc1` in the same way.
// result 1.7

// query Consider next the compound `CCOc1ccc(Cc2cc([C@@H]3O[C@H](SC)[C@@H](O)[C@H](O)[C@H]3O)ccc2Cl)cc1` in the same way.
// result 1.32

// query Consider next the compound `Nc1nc(N)c2nc(-c3ccccc3)c(N)nc2n1` in the same way.
// result 1.01

Attribution: the supplement of paper PMC10127200
